What phosphorylation enrichment was measured for each of the following?
molecular target: FGFR1 (UniProt P11362); assay: phosphorylation enrichment, bacterial display (enrichment ratio); higher = better substrate or ligand; peptides without Tyr show the background;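 also: 11-residue human phosphosite peptides and single-mutation variants displayed on the E. coli surface, counted by deep sequencing, each peptide's frequency after selection divided by its frequency in the unselected input library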;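 also: frequency after pTyr selection over input frequency; kinase dosed for 20-30% of maximal phosphorylation in three min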
Sequence (P11362 whole entry, looked up): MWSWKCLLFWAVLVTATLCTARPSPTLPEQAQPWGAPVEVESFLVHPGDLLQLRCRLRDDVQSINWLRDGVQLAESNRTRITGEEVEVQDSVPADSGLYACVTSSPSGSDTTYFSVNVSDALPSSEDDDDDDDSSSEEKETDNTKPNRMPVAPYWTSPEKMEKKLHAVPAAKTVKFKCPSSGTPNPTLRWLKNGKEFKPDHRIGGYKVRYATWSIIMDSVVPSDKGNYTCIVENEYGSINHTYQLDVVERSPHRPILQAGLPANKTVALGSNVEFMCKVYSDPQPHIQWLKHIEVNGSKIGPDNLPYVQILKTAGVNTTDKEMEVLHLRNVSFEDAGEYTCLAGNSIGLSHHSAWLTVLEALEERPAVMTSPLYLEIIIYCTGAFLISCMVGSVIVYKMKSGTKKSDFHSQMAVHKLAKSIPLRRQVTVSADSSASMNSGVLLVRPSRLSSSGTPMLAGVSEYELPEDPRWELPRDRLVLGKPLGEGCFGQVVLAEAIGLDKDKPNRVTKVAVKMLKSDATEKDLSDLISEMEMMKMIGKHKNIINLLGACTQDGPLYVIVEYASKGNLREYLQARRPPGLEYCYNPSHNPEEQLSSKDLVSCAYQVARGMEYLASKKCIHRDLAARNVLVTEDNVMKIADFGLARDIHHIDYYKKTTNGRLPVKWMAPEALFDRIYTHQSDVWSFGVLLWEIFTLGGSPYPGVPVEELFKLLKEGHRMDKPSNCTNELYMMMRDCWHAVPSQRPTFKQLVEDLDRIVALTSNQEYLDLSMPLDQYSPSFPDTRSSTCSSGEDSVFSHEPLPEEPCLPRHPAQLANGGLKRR
A bare number is all that is needed in reply.

q: Please tell me: phosphorylation enrichment of EKMWTYMRSAE [GRIA4_Y695] , system FGFR1 (UniProt P11362)?
a: 0.409

q: Please tell me: phosphorylation enrichment of KVQVSYKGETK [HSPA1A_Y107] , system FGFR1 (UniProt P11362)?
a: 0.429

q: Please tell me: phosphorylation enrichment of RFGKVYKAHLF [ROR2_Y488_G490A] , system FGFR1 (UniProt P11362)?
a: 0.72

q: Please tell me: phosphorylation enrichment of QEKKGYFEDRR [GLUL_Y336] , system FGFR1 (UniProt P11362)?
a: 0.682

q: Please tell me: phosphorylation enrichment of MQMEEYRGWVE [BTNL2_Y91] , system FGFR1 (UniProt P11362)?
a: 0.488

q: Please tell me: phosphorylation enrichment of VSFGEYRFRSV [CFTR_Y515_D513G_YF] , system FGFR1 (UniProt P11362)?
a: 0.523

q: Please tell me: phosphorylation enrichment of AGLEDYDRLRP [RAC3_Y64_Q61L] , system FGFR1 (UniProt P11362)?
a: 0.836

q: Please tell me: phosphorylation enrichment of RWQQLYDTLNA [EIF3M_Y351_Q346R] , system FGFR1 (UniProt P11362)?
a: 0.574

q: Please tell me: phosphorylation enrichment of FADIAYIFRHG [PAH_Y166_N167I_YF] , system FGFR1 (UniProt P11362)?
a: 0.637

q: Please tell me: phosphorylation enrichment of DSFWSYCNAVA [SLC20A2_Y436_S434W_YF] , system FGFR1 (UniProt P11362)?
a: 0.65

q: Please tell me: phosphorylation enrichment of HEKFLYFLPAS [DYNC2H1_Y346] , system FGFR1 (UniProt P11362)?
a: 1.08

q: Please tell me: phosphorylation enrichment of FLTLHYDAKPQ [ANG_Y38_Q36L] , system FGFR1 (UniProt P11362)?
a: 0.532

q: Please tell me: phosphorylation enrichment of DAVCYYRMENA [NPHS2_Y195_I192V] , system FGFR1 (UniProt P11362)?
a: 7.53

q: Please tell me: phosphorylation enrichment of KREPQYSSHSS [SIPA1L3_Y1265_G1261R] , system FGFR1 (UniProt P11362)?
a: 0.377

q: Please tell me: phosphorylation enrichment of LTKQEYDEAGP [ACTA1_Y364_I359L] , system FGFR1 (UniProt P11362)?
a: 0.811

q: Please tell me: phosphorylation enrichment of ASGKFYAMKIL [AKT3_Y174_YF] , system FGFR1 (UniProt P11362)?
a: 0.609

q: Please tell me: phosphorylation enrichment of DKATEYSQYMR [MAX_Y70_I71S] , system FGFR1 (UniProt P11362)?
a: 0.531

q: Please tell me: phosphorylation enrichment of EQYELHCEMGS [CBL_Y371_Y371H] , system FGFR1 (UniProt P11362)?
a: 0.538

q: Please tell me: phosphorylation enrichment of GHLFAYDWISI [BEST1_Y227_YF] , system FGFR1 (UniProt P11362)?
a: 2.76

q: Please tell me: phosphorylation enrichment of VTNHIYTWVDP [DFNB31_Y234] , system FGFR1 (UniProt P11362)?
a: 3.77

q: Please tell me: phosphorylation enrichment of CDGKEYDPVEA [MAPRE2_Y167_Y162C] , system FGFR1 (UniProt P11362)?
a: 0.594

q: Please tell me: phosphorylation enrichment of MGSYNYLGFAW [SPTLC2_Y178_R183W] , system FGFR1 (UniProt P11362)?
a: 2.96

q: Please tell me: phosphorylation enrichment of KMTGRYEMFAR [UPB1_Y362_YF] , system FGFR1 (UniProt P11362)?
a: 0.499

q: Please tell me: phosphorylation enrichment of ESFRLYPPVPQ [CYP4B1_Y377] , system FGFR1 (UniProt P11362)?
a: 0.342

q: Please tell me: phosphorylation enrichment of EEVGIYRMSGV [BCR_Y1089_V1091M] , system FGFR1 (UniProt P11362)?
a: 0.556

q: Please tell me: phosphorylation enrichment of IKSSIYDNRKE [ARAP2_Y380] , system FGFR1 (UniProt P11362)?
a: 0.538

q: Please tell me: phosphorylation enrichment of FSVDGYDSSVR [KCNQ1_Y461] , system FGFR1 (UniProt P11362)?
a: 0.427

q: Please tell me: phosphorylation enrichment of IYHLSYLHNCE [PDE6B_Y227] , system FGFR1 (UniProt P11362)?
a: 1.95

q: Please tell me: phosphorylation enrichment of QSSALYEDHFL [ASS1_Y83_R86H_YF] , system FGFR1 (UniProt P11362)?
a: 0.654

q: Please tell me: phosphorylation enrichment of PADSGYPAYLG [ATP6V1A_Y374] , system FGFR1 (UniProt P11362)?
a: 0.755

q: Please tell me: phosphorylation enrichment of WAAQRYGRELR [BAD_Y110] , system FGFR1 (UniProt P11362)?
a: 0.464

q: Please tell me: phosphorylation enrichment of TMKSHYMELYD [BBS2_Y644_R643H] , system FGFR1 (UniProt P11362)?
a: 0.568

q: Please tell me: phosphorylation enrichment of LNERHYGGLTG [PGAM2_Y92] , system FGFR1 (UniProt P11362)?
a: 0.607

q: Please tell me: phosphorylation enrichment of FKEQGYHRLPP [RIN1_Y681_YF] , system FGFR1 (UniProt P11362)?
a: 0.58

q: Please tell me: phosphorylation enrichment of MFFSTYDRDND [FGB_Y408] , system FGFR1 (UniProt P11362)?
a: 0.673

q: Please tell me: phosphorylation enrichment of LKTNWYNNGKD [DNMT3B_Y404_C403W] , system FGFR1 (UniProt P11362)?
a: 0.664

q: Please tell me: phosphorylation enrichment of NVLPEYKLQAP [KCNH2_Y388_D383N] , system FGFR1 (UniProt P11362)?
a: 0.411

q: Please tell me: phosphorylation enrichment of MANYMYKAGPS [MAML2_Y515] , system FGFR1 (UniProt P11362)?
a: 0.465

q: Please tell me: phosphorylation enrichment of CSKRFYQLTKL [AR_Y858_R855K] , system FGFR1 (UniProt P11362)?
a: 0.401

q: Please tell me: phosphorylation enrichment of SRPHLYGTPSR [ADGRE2_Y670] , system FGFR1 (UniProt P11362)?
a: 0.426

q: Please tell me: phosphorylation enrichment of LICRRYLVMQR [IL3RA_Y328_V323L] , system FGFR1 (UniProt P11362)?
a: 0.926

q: Please tell me: phosphorylation enrichment of GSSSSYGQHGS [HRNR_Y517] , system FGFR1 (UniProt P11362)?
a: 0.396

q: Please tell me: phosphorylation enrichment of FMCKVYSDPQP [FGFR1_Y280] , system FGFR1 (UniProt P11362)?
a: 0.543

q: Please tell me: phosphorylation enrichment of VYPATYHPDHW [EFCAB12_Y544] , system FGFR1 (UniProt P11362)?
a: 0.564

q: Please tell me: phosphorylation enrichment of TRVMEYISRLD [CLTCL1_Y1043] , system FGFR1 (UniProt P11362)?
a: 0.344

q: Please tell me: phosphorylation enrichment of AKKKMYSLKTK [AGXT_Y231_R233L] , system FGFR1 (UniProt P11362)?
a: 0.389

q: Please tell me: phosphorylation enrichment of SIKDKYVMALY [KCNH2_Y611_T613M] , system FGFR1 (UniProt P11362)?
a: 0.638

q: Please tell me: phosphorylation enrichment of NMSRIYSTAKV [ACE_Y151] , system FGFR1 (UniProt P11362)?
a: 0.451

q: Please tell me: phosphorylation enrichment of EIIPFYGMSSF [FNDC3B_Y175_T179S_YF] , system FGFR1 (UniProt P11362)?
a: 0.497

q: Please tell me: phosphorylation enrichment of MTEEQYIKMNR [ARFGEF2_Y797_K794E] , system FGFR1 (UniProt P11362)?
a: 0.558

q: Please tell me: phosphorylation enrichment of RWGQKHMTAVV [CYBA_Y72_Y72H] , system FGFR1 (UniProt P11362)?
a: 0.483

q: Please tell me: phosphorylation enrichment of KIVFVYVKKRS [DNAI2_Y7_E2K_YF] , system FGFR1 (UniProt P11362)?
a: 0.466

q: Please tell me: phosphorylation enrichment of ISNATYKEIGL [FLT1_Y199] , system FGFR1 (UniProt P11362)?
a: 0.446

q: Please tell me: phosphorylation enrichment of PVGVLYEVKVY [PTS_Y128_K129E] , system FGFR1 (UniProt P11362)?
a: 0.783

q: Please tell me: phosphorylation enrichment of GHPFAYDWISI [BEST1_Y227_L224P_YF] , system FGFR1 (UniProt P11362)?
a: 2.03

q: Please tell me: phosphorylation enrichment of TQKLAYMELQQ [CENPF_Y700] , system FGFR1 (UniProt P11362)?
a: 0.596

q: Please tell me: phosphorylation enrichment of KVGNGYISAAE [CALM2_Y100_D96V] , system FGFR1 (UniProt P11362)?
a: 0.456

q: Please tell me: phosphorylation enrichment of QYPDIYAREEV [CRX_Y67_V66I] , system FGFR1 (UniProt P11362)?
a: 1.23

Values compiled from the supplement of paper PMC10065799.
